System: PFTAIRE2;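 note: KINOMEscan kinase panel screen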
Conditions: concentration: 1 μM, replicates: in singlicate; n = 1
Each entry below lists one item and its recorded %Inh value.
# output: number + unit

Examples with answers:
CCn1c(-c2ccncc2)nc2cnccc21 [SB-735216]: 0%
Nc1nc(-c2ccc3c(N)n[nH]c3c2)cc(N2CCCCC2)n1 [GSK2228768]: 1%
Fc1cccc(COc2ccc(Nc3ncnc4cc[nH]c34)cc2Cl)c1: 17%
CC(C)(C)OC(=O)NC1CCCN(c2cc(-c3ccc4c(N)n[nH]c4c3)nc(N)n2)C1 (stereo not shown) [GSK2286096]: 18%
Fc1cccc(COc2ccc(Nc3ncnc4sc(-c5ccc[nH]5)cc34)cc2Cl)c1 [GW707818]: 22%
COc1ccc(NC(=O)Nc2ccc(C)c(-c3ccc(C(=O)Nc4ccncc4)cc3)c2)cc1 [GSK1398475]: 20%
Cl.Cl.c1ccc(-c2cc3ccncc3cc2OC2CCNCC2)cc1 [GSK1122999]: 34%
CNc1nccc(-c2c(-c3ccc(F)cc3)ncn2CCCN2CCOCC2)n1 [SB-222516]: 9%
Cl.O=S(=O)(c1cccc(F)c1)c1ccc(Nc2ncnc3cc(Br)sc23)cc1Cl [GSK306886]: 24%
CCC(CC)(CC)n1cnc2c(N)ncnc21 [SKF-97620]: 0%

Provide value of %Inh for this record tested with PFTAIRE2: Nc1nc(-c2ccc3c(N)n[nH]c3c2)cc(N2CCC[C@@H](C(=O)Nc3ccccc3)C2)n1.O=C(O)C(F)(F)F.O=C(O)C(F)(F)F [GSK2288359]
18%

Provide value of %Inh for this record tested with PFTAIRE2: Clc1ccc(-c2cc(-c3c[nH]nc3-c3ccccn3)ccn2)cc1 [GW681251]
1%

Provide value of %Inh for this record tested with PFTAIRE2: `O=C(NCCCN1CCCC1=O)c1cnc(NCc2cc(Cl)ccc2Cl)nc1NC1CCNCC1`
0%
